Molecular target: AKR1C4 (Homo sapiens (Human))
Sequence (P17516 whole entry): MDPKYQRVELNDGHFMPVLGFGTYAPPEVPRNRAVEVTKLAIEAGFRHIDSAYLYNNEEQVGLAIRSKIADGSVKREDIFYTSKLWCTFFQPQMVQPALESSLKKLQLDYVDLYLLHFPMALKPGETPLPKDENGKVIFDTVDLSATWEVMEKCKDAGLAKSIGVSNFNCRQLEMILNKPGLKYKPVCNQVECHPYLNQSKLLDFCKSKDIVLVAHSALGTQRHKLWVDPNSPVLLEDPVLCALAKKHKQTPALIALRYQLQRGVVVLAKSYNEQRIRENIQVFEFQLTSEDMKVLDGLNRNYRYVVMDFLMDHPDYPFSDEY
reportedEndpoint: pIC50
Convention used: pIC50 is expressed as -log10 of the molar concentration.

Any idea what its pIC50 is? The compound is COc1ccc2c(c1)c1c(n2C(=O)c2ccc(Cl)cc2)CCC(C(=O)O)C1 (stereo not shown) 5.50

----------
// values below are reported pIC50
Biological target: homogeneous recombinant AKR1C3 (Homo sapiens (Human), UniProt P42330)
Sequence (P42330 whole entry): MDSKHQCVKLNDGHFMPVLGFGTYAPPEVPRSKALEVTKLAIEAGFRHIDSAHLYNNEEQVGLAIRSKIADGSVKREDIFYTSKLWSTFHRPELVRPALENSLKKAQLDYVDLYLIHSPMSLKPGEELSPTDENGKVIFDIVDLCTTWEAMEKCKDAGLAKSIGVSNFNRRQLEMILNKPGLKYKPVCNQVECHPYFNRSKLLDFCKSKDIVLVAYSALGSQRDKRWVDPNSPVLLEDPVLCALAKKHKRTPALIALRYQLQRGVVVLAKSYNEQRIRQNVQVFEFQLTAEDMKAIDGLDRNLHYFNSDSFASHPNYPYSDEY
Assay: Inhibition of NADP+ dependent oxidation of S-tetralol catalyzed by AKR1C3
Conditions: S-tetralol substrate at Km
Would you please state pIC50, meaning minus log10 of the concentration in mol/L, as a bare number?

> print(dat)
                                   molecule                               studytarget  reportedendpoint  assayresult
1  COc1ccc2c(c1)c(CC(=O)NS(=O)(=O)C(F)(F)F)c(C)n2C(=O)c1ccc(Cl)cc1  homogeneous recombinant AKR1C3 (Homo sapiens (Human), UniProt P42330)             pIC50         6.13
2  COc1ccc2c(c1)c(CC(=O)O)c(C)n2C(=O)c1ccc(CCl)cc1  homogeneous recombinant AKR1C3 (Homo sapiens (Human), UniProt P42330)             pIC50         6.92
3  COc1ccc2c(c1)c(CC(=O)O)c(C)n2C(=O)c1ccc(C)cc1  homogeneous recombinant AKR1C3 (Homo sapiens (Human), UniProt P42330)             pIC50         6.80
4  CCc1c(CCC(=O)O)n(C(=O)c2ccc(Cl)cc2)c2ccc(OC)cc12  homogeneous recombinant AKR1C3 (Homo sapiens (Human), UniProt P42330)             pIC50         7.05

Moving on to another molecule below.
So what's the measured pIC50 for this one? COc1ccc2c(c1)c(C)c(CCC(=O)NS(C)(=O)=O)n2C(=O)c1ccc(Cl)cc1 [drawing 38] 6.47

----------
Molecular target: AKR1C2 (Homo sapiens (Human), UniProt P52895)
Sequence (P52895 whole entry): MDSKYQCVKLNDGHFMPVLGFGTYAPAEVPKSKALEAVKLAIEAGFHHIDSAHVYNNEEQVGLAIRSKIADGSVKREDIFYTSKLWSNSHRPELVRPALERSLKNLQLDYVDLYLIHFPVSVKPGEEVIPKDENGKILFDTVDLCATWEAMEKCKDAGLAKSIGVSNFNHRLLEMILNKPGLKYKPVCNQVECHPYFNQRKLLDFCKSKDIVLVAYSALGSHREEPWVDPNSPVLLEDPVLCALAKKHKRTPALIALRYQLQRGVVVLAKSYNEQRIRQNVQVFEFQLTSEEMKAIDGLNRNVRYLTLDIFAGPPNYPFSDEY
reportedEndpoint: IC50 (µM)
Give the value, in units of µM, as a plain number.

Worked cases, answers included:
> print(dat)
                                   molecule  outputunit  assayresult
1  COc1ccc2c(c1)c(CC(=O)O)c(C)n2C(=O)c1ccc(C(F)(F)F)cc1          µM         35.7
2  COc1ccc2c(c1)c(C)c(CCC(=O)NS(C)(=O)=O)n2C(=O)c1ccc(Cl)cc1 [drawing 38]          µM           93
3  CCc1c(CCC(=O)O)n(C(=O)c2ccc(Cl)cc2)c2ccc(OC)cc12          µM         49.6
4  COc1ccc2c(c1)c(CC(=O)O)c(C)n2C(=O)c1ccc(CCl)cc1          µM         40.7

Turning to the following molecule.
What IC50 appears in the records for this molecule with AKR1C2 (Homo sapiens (Human), UniProt P52895)? COc1ccc2c(c1)c(C)c(CCC(=O)O)n2C(=O)c1ccc(Cl)cc1 [drawing 37] 14.5

From: patent US9346803B2
